Protocol summary: Percent mRNA encapsulation of lipid nanoparticle formulations (fluorescence-based detection of mRNA)
Assay type: physicochemical
Applied conditions: LNP of cationic lipid:DOPE:DMG-PEG 2K (molar ratio 60:35:5); 5 mg mRNA LNP preparations
Recorded endpoint: % mRNA encapsulation (%)

| Molecule | Recorded endpoint | Unit symbol | Observed |
| --- | --- | --- | --- |
| CCCCCCCCCCC(O)CN(CCN1CCN(CCN(CC(O)CCCCCCCCCC)CC(O)CCCCCCCCCC)CC1)CCN(CC(O)CCCCCCCCCC)CC(O)CCCCCCCCCC (centres unmarked) | % mRNA encapsulation | % | 39 |
| CCCCCCCC/C=C\CCCCCCCCOCC(CN(C)C)OCCCCCCCC/C=C\CCCCCCCC (centres unmarked) | % mRNA encapsulation | % | 51 |
| CCCCCCCCCCC(O)CN(CCCC(C)C1OC(=O)C(C(C)CCCN(CC(O)CCCCCCCCCC)CC(O)CCCCCCCCCC)OC1=O)CC(O)CCCCCCCCC (centres unmarked) | % mRNA encapsulation | % | 59 |
| CCCCCCCC/C=C\CCCCCCCC(=O)OCC(CN(C)C)OC(=O)CCCCCCC/C=C\CCCCCCCC (centres unmarked) | % mRNA encapsulation | % | 49 |
| CC(C)CCCC(C)C1CCC2C3CC=C4CC(OC(=O)CCc5cnc[nH]5)CCC4(C)C3CCC12C (centres unmarked) | % mRNA encapsulation | % | 90 |

Value source: patent US11013812B2
